Measured self-aminoacylation of individual entries
System: biotinyl-Leu-oxazolone
EXPERIMENT DESCRIPTION: self-aminoacylation, catalytic enhancement (BLO) (fold over background); higher = more active; k-Seq, kA / k0A0; sequences stand for … in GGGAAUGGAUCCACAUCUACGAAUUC…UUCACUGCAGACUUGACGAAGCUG
Fewer inactive variants are shown than the library holds.
Write no unit; give the number alone.

Solved entries (count: 4):
[
  {
    "RESIDUES": "AUUCACCGAGGUCAUCAGGUG [Fam2.2 aminoacylation ribozyme variant]",
    "self-aminoacylation": 2.03
  },
  {
    "RESIDUES": "AGGUUUGCUAAUAGUAGCAAG [Fam3.1 aminoacylation ribozyme variant]",
    "self-aminoacylation": 1.43
  },
  {
    "RESIDUES": "CCACACUUCAAUCCAUCGGUC [Fam1B.1 aminoacylation ribozyme variant]",
    "self-aminoacylation": 0.676
  },
  {
    "RESIDUES": "AAGUUUGCUAGUAGUAGCAAG [Fam3.1 aminoacylation ribozyme variant]",
    "self-aminoacylation": 1
  }
]

# ---- query sequence ----
Endpoint output: self-aminoacylation of AGUCACCUAGGUCUUCGGGUG [Fam2.2 aminoacylation ribozyme variant] . Value?
8.46

====

Tested on: biotinyl-Ile-oxazolone
EXPERIMENT DESCRIPTION: self-aminoacylation, catalytic enhancement (BIO) (fold over background); higher = more active; k-Seq, kA / k0A0; sequences stand for … in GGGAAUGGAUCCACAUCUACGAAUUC…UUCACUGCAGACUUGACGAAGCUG
Variants at the floor of the assay were thinned out.
QUANTITY: self-aminoacylation
Write no unit; give the number alone.

[
  {
    "RESIDUES": "AAGUUUGCUAAUAGUGGCACG [Fam3.1 aminoacylation ribozyme variant]",
    "self-aminoacylation": 0.684
  },
  {
    "RESIDUES": "AUUACCCUGGGCGUCGAGUGA [Fam2.1 aminoacylation ribozyme variant]",
    "self-aminoacylation": 1.04
  },
  {
    "RESIDUES": "AUUCACAUAGGUCAUCGGCUG [Fam2.2 aminoacylation ribozyme variant]",
    "self-aminoacylation": 1.72
  },
  {
    "RESIDUES": "GUUCACCUAGGUCAUGGGGUG [Fam2.2 aminoacylation ribozyme variant]",
    "self-aminoacylation": 2.64
  },
  {
    "RESIDUES": "AUUCACUUAGGUCAUCGCGUG [Fam2.2 aminoacylation ribozyme variant]",
    "self-aminoacylation": 6.03
  }
]

Endpoint output: self-aminoacylation of CCACACUUGAAGCAACCGGUC [Fam1B.1 aminoacylation ribozyme variant] . Value?
0.886

Endpoint output: self-aminoacylation of AUUACCCCGGUCAACGAGUGA [Fam2.1 aminoacylation ribozyme variant] . Value?
3.08

Endpoint output: self-aminoacylation of AAGUUUCCUAAUAGUCGCGAG [Fam3.1 aminoacylation ribozyme variant] . Value?
2.47

Endpoint output: self-aminoacylation of AUUCACCUAGGUCAGCGGGUG [Fam2.2 aminoacylation ribozyme variant] . Value?
3.3

Endpoint output: self-aminoacylation of AAGUCUGCUUAUAGUCGCAAG [Fam3.1 aminoacylation ribozyme variant] . Value?
0.895

Endpoint output: self-aminoacylation of AUUAACCUACGUCAUCGGGUG [Fam2.2 aminoacylation ribozyme variant] . Value?
3.99

Endpoint output: self-aminoacylation of AUUACCCUGCUCACCGAGUGA [Fam2.1 aminoacylation ribozyme variant] . Value?
2.76

Endpoint output: self-aminoacylation of AUUAACCUAGGUUAUCGGGUG [Fam2.2 aminoacylation ribozyme variant] . Value?
2.5

Endpoint output: self-aminoacylation of CCUCACUUUAAGCAAUCGGUC [Fam1B.1 aminoacylation ribozyme variant] . Value?
0.734

Endpoint output: self-aminoacylation of AUUACCAUGGUCAUCGAGUAA [Fam2.1 aminoacylation ribozyme variant] . Value?
1.41

Endpoint output: self-aminoacylation of AUUCACAUUGGUCAUCGGGUG [Fam2.2 aminoacylation ribozyme variant] . Value?
6.31

Endpoint output: self-aminoacylation of CUAUUUCAAAGAAUCGGUCUG [Fam1A.1 aminoacylation ribozyme variant] . Value?
0.887

Endpoint output: self-aminoacylation of CCACACUUCAAGCAAUCGGCA [Fam1B.1 aminoacylation ribozyme variant] . Value?
1.18

Endpoint output: self-aminoacylation of AAAUUUGCUAAUAGGCGCAAG [Fam3.1 aminoacylation ribozyme variant] . Value?
1.41

Endpoint output: self-aminoacylation of AUUCACCUAGGUCAUCGCGUU [Fam2.2 aminoacylation ribozyme variant] . Value?
2.48

====

System: biotinyl-Leu-oxazolone
EXPERIMENT DESCRIPTION: self-aminoacylation, catalytic enhancement (BLO) (fold over background); higher = more active; k-Seq, kA / k0A0; sequences stand for … in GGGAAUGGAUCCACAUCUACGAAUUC…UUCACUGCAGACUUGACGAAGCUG
Fewer inactive variants are shown than the library holds.
QUANTITY: self-aminoacylation
Write no unit; give the number alone.

[
  {
    "RESIDUES": "AAGUUUGCUAAUCUUCGCAAG [Fam3.1 aminoacylation ribozyme variant]",
    "TEST SYSTEM": "biotinyl-Leu-oxazolone",
    "self-aminoacylation": 0.95
  },
  {
    "RESIDUES": "CCACACUGUAAGCAAUCGGUC [Fam1B.1 aminoacylation ribozyme variant]",
    "TEST SYSTEM": "biotinyl-Leu-oxazolone",
    "self-aminoacylation": 1.09
  }
]

Endpoint output: self-aminoacylation of UUACUUCAAACAAUCGGCCUG [Fam1A.1 aminoacylation ribozyme variant] . Value?
4.03

====

System: biotinyl-Trp-oxazolone
EXPERIMENT DESCRIPTION: self-aminoacylation, catalytic enhancement (BWO) (fold over background); higher = more active; k-Seq, kA / k0A0; sequences stand for … in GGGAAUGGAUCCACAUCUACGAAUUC…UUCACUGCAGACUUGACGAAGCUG
Variants at the floor of the assay were thinned out.
Measured self-aminoacylation of individual entries
Write no unit; give the number alone.

Solved entries (count: 3):
[
  {
    "RESIDUES": "CUAAUUCAUACAAUCGGUCUG [Fam1A.1 aminoacylation ribozyme variant]",
    "self-aminoacylation": 0.52
  },
  {
    "RESIDUES": "CCAAACUUCAAUCAAUCGGUC [Fam1B.1 aminoacylation ribozyme variant]",
    "self-aminoacylation": 23.5
  },
  {
    "RESIDUES": "CUGCUUCAAAAAAUCGGUCUG [Fam1A.1 aminoacylation ribozyme variant]",
    "self-aminoacylation": 14.2
  }
]

# ---- query sequence ----
Endpoint output: self-aminoacylation of CCAAACUUCAAGCAAUAGGUC [Fam1B.1 aminoacylation ribozyme variant] . Value?
0.458

====

Tested on: biotinyl-Ile-oxazolone
EXPERIMENT DESCRIPTION: self-aminoacylation, catalytic enhancement (BIO) (fold over background); higher = more active; k-Seq, kA / k0A0; sequences stand for … in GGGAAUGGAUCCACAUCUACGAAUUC…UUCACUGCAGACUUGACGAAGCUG
Fewer inactive variants are shown than the library holds.
Measured self-aminoacylation of individual entries
Write no unit; give the number alone.

Solved entries (count: 5):
[
  {
    "RESIDUES": "CUACUUAAAACAAUCGGUUUG [Fam1A.1 aminoacylation ribozyme variant]",
    "self-aminoacylation": 0.672
  },
  {
    "RESIDUES": "AAUUUUGCUAUUAGUCGCAAG [Fam3.1 aminoacylation ribozyme variant]",
    "self-aminoacylation": 1.98
  },
  {
    "RESIDUES": "CCACACUUGAAGCAAUCGGGC [Fam1B.1 aminoacylation ribozyme variant]",
    "self-aminoacylation": 1.55
  },
  {
    "RESIDUES": "CUUACCCUGGUCCUCGAGUGA [Fam2.1 aminoacylation ribozyme variant]",
    "self-aminoacylation": 2.44
  },
  {
    "RESIDUES": "AUUACCGUGGUCAUCGAGUGA [Fam2.1 aminoacylation ribozyme variant]",
    "self-aminoacylation": 3.39
  }
]

Endpoint output: self-aminoacylation of AUUCAUCUAGGUCAUCGGGGG [Fam2.2 aminoacylation ribozyme variant] . Value?
1.82

Endpoint output: self-aminoacylation of AUCCACCUAGGUCAUCGGCUG [Fam2.2 aminoacylation ribozyme variant] . Value?
1.95

Endpoint output: self-aminoacylation of AAGAUUGCUAAUAGUCGCAUG [Fam3.1 aminoacylation ribozyme variant] . Value?
1.68

Endpoint output: self-aminoacylation of CUACUUCACACAAUCGGUCUU [Fam1A.1 aminoacylation ribozyme variant] . Value?
0.963

Endpoint output: self-aminoacylation of AUUCACCUAGGACAUCGGGUC [Fam2.2 aminoacylation ribozyme variant] . Value?
1.22

Endpoint output: self-aminoacylation of AUUCACCUAGGUCCUCGGGUU [Fam2.2 aminoacylation ribozyme variant] . Value?
1.8

Endpoint output: self-aminoacylation of AUUCAGCUAGGACAUCGGGUG [Fam2.2 aminoacylation ribozyme variant] . Value?
3.53

Endpoint output: self-aminoacylation of AAGUUUGCCAAUAGUCGCAUG [Fam3.1 aminoacylation ribozyme variant] . Value?
1.5

Endpoint output: self-aminoacylation of AUAACCCUGGUCCUCGAGUGA [Fam2.1 aminoacylation ribozyme variant] . Value?
1.91

Endpoint output: self-aminoacylation of AUACACCUAGGUCAUCUGGUG [Fam2.2 aminoacylation ribozyme variant] . Value?
1.4

Endpoint output: self-aminoacylation of CUUCUUCAAACCAUCGGUCUG [Fam1A.1 aminoacylation ribozyme variant] . Value?
0.856

Endpoint output: self-aminoacylation of CCACACUUCAACCAAUCGGGC [Fam1B.1 aminoacylation ribozyme variant] . Value?
1.91

Endpoint output: self-aminoacylation of AUUACCCUGACCAUCGAGUGA [Fam2.1 aminoacylation ribozyme variant] . Value?
3.01

Endpoint output: self-aminoacylation of AUUAGCCUGGUCAUCGGGUGA [Fam2.1 aminoacylation ribozyme variant] . Value?
6.74

Endpoint output: self-aminoacylation of AUUACCCUAGUCAUCGAGUUA [Fam2.1 aminoacylation ribozyme variant] . Value?
0.922

Endpoint output: self-aminoacylation of AUUCAACUAUGUCAUCGGGUG [Fam2.2 aminoacylation ribozyme variant] . Value?
3.08

Endpoint output: self-aminoacylation of AAGUUUGGUAAUAGUCGUAAG [Fam3.1 aminoacylation ribozyme variant] . Value?
1.04

Endpoint output: self-aminoacylation of AUUACCCUGUUGAUCGAGUGA [Fam2.1 aminoacylation ribozyme variant] . Value?
5.62
